Data provenance is patent US20260062463A1.

# System name: T1, AAV9 (adeno-associated virus 9, Assembled 60-mer capsid of VP1/VP2/VP3 (nested products of one cap gene), amine-coupled to a CM5 chip; the letters give one VP1 subunit only.)
# T1 construct: also called adeno-associated virus serotype 9
# Method description: SPR, AAV amine-coupled to CM5 chip
Measurement kind: kon (M⁻¹ s⁻¹)
Write the number in M⁻¹ s⁻¹ without appending the unit.

Short answer for A4-C7 (bispecific antibody) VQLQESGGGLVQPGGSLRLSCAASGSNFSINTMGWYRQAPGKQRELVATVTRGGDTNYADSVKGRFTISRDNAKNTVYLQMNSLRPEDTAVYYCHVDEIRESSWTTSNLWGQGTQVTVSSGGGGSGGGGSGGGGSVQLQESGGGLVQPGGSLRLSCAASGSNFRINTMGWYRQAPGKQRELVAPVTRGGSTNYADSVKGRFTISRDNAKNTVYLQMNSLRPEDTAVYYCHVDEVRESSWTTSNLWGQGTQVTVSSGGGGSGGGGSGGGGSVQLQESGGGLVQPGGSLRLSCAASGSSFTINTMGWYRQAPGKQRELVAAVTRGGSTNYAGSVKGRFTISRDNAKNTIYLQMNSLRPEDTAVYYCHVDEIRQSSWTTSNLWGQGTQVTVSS : kon was 137000
